Recorded human Hepatocytes [% Qh] values for a group of molecules are listed next.
Assay: Assay C: Hepatocyte clearance
Assay type: in vitro ADME, human
Settings: hepatocyte suspension, 1 μM compound, 6 h; predicted clearance as % of hepatic blood flow
Procedure: Assay C: Hepatocyte Clearance The metabolic degradation of the test compound is assayed in a hepatocyte suspension. […] Decline of Parent Compound is Analyzed by HPLC-MS/MS CLint is calculated as follows CL_[…]=Dose/AUC=(C0/CD)/(AUD+clast/k)×1000/60. […] The calculated in vitro hepatic intrinsic clearance can be scaled up to the intrinsic in vivo hepatic Clearance and used to predict hepatic in vivo blood clearance (CL) by the use of a liver model (well stirred model). […]

[
  {
    "smiles record": "CCNC(=O)c1cn(Cc2nnn(C[C@H](O)c3ccc(Cl)cc3)n2)c(=O)n(C)c1=O",
    "result qualifier": "=",
    "human Hepatocytes [% Qh] [% Qh]": 44
  },
  {
    "smiles record": "Cn1c(=O)c(C(N)=O)cn(Cc2nnn(C[C@H](O)c3ccc(C#N)s3)n2)c1=O",
    "result qualifier": "=",
    "human Hepatocytes [% Qh] [% Qh]": 4
  },
  {
    "smiles record": "Cn1c(=O)c(C(=O)NCC(F)(F)F)cn(Cc2nnn(C[C@H](O)c3ccc(Cl)cc3)n2)c1=O",
    "result qualifier": "=",
    "human Hepatocytes [% Qh] [% Qh]": 4
  },
  {
    "smiles record": "Cn1c(=O)c(C(N)=O)cn(Cc2nnn(C[C@H](O)c3cc4cccc(F)c4o3)n2)c1=O",
    "result qualifier": "=",
    "human Hepatocytes [% Qh] [% Qh]": 14
  },
  {
    "smiles record": "Cn1c(=O)c(C(=O)NCC2CC2)cn(Cc2nnn(C[C@H](O)c3ccc(Cl)cc3)n2)c1=O",
    "result qualifier": "=",
    "human Hepatocytes [% Qh] [% Qh]": 45
  },
  {
    "smiles record": "NC(=O)c1cn(Cc2nnn(C[C@H](O)c3ccc(Cl)cc3)n2)c(=O)n(CC2CC2)c1=O",
    "result qualifier": "=",
    "human Hepatocytes [% Qh] [% Qh]": 15
  },
  {
    "smiles record": "Cn1c(=O)c(C(N)=O)cn(Cc2nnn(C[C@H](O)c3ccc(Cl)s3)n2)c1=O",
    "result qualifier": "=",
    "human Hepatocytes [% Qh] [% Qh]": 15
  },
  {
    "smiles record": "Cn1c(=O)c(C(N)=O)cn(Cc2nnn(C[C@H](O)c3ccc4c(c3)OCO4)n2)c1=O",
    "result qualifier": "<",
    "human Hepatocytes [% Qh] [% Qh]": 4
  }
]

---

Target: human TRPA1 ion channel (Homo sapiens, UniProt O75762)
Sequence (O75762 whole entry): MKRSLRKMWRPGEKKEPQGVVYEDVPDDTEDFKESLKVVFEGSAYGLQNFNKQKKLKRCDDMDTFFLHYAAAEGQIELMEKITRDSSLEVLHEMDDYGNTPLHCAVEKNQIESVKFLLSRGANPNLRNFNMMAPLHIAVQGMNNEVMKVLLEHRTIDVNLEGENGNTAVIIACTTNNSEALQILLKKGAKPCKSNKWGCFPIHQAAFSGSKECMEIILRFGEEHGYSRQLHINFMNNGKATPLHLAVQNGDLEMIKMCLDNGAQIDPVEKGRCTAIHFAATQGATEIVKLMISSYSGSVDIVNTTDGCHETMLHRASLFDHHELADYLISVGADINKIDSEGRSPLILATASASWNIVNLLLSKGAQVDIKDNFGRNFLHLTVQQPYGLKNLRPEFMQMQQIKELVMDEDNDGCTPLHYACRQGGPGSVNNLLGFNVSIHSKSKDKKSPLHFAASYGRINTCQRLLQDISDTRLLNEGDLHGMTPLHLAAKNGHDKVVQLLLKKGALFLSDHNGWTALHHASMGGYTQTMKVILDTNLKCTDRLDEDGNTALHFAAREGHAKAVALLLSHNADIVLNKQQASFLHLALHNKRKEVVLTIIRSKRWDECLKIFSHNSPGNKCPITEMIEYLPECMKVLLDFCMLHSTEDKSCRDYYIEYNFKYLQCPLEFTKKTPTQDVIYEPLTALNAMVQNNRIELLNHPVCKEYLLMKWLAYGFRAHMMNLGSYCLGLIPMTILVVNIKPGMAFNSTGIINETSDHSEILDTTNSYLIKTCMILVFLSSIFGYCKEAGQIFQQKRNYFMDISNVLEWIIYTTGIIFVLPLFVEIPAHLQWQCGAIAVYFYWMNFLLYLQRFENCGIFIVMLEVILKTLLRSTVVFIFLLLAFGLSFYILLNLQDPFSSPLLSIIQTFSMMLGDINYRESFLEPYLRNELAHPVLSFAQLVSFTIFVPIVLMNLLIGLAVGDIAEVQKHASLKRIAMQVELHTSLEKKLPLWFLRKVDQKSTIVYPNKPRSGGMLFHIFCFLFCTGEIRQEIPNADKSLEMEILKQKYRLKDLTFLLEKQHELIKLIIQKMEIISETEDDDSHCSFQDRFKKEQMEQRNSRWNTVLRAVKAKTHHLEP
Assay: Assay A: TRPA1 assay (FLIPR, AITC-induced calcium, HEK293 cells)
Settings: read-out: hTRPA1 IC50
Could you please mark criterion met for values of IC50 below 200 nM and criterion not met for values at or above it?

[
  {
    "smiles record": "Cn1c(=O)c(C(N)=O)cn(Cc2nnn(C[C@H](O)c3ccc4oc(F)cc4c3)n2)c1=O",
    "assigned label": "criterion met"
  },
  {
    "smiles record": "CCNC(=O)c1cn(Cc2nnn(C[C@H](O)c3ccc(Cl)cc3)n2)c(=O)n(C)c1=O",
    "assigned label": "criterion not met"
  },
  {
    "smiles record": "Cn1c(=O)c(C(=O)NCC2CC2)cn(Cc2nnn(C[C@H](O)c3ccc(Cl)cc3)n2)c1=O",
    "assigned label": "criterion met"
  },
  {
    "smiles record": "Cn1c(=O)c(C(N)=O)cn(Cc2nnn(C[C@H](O)c3ccc(C#N)s3)n2)c1=O",
    "assigned label": "criterion met"
  },
  {
    "smiles record": "COCCNC(=O)c1cn(Cc2nnn(C[C@H](O)c3ccc(Cl)cc3)n2)c(=O)n(C)c1=O",
    "assigned label": "criterion met"
  },
  {
    "smiles record": "Cn1c(=O)c(C(=O)NCCS(C)(=O)=O)cn(Cc2nnn(C[C@H](O)c3ccc(Cl)cc3)n2)c1=O",
    "assigned label": "criterion met"
  },
  {
    "smiles record": "Cn1c(=O)c(C(N)=O)cn(Cc2nnn(C[C@H](O)c3ccc(Cl)cc3)n2)c1=O",
    "assigned label": "criterion met"
  },
  {
    "smiles record": "COCCn1c(=O)c(C(N)=O)cn(Cc2nnn(C[C@H](O)c3ccc(Cl)cc3)n2)c1=O",
    "assigned label": "criterion not met"
  }
]

---

Test: Assay C: Hepatocyte clearance
Assay type: in vitro ADME, human
Conditions: hepatocyte suspension, 1 μM compound, 6 h; predicted clearance as % of hepatic blood flow

[
  {
    "molecule": "Cn1c(=O)c(C(N)=O)cn(Cc2nnn(C[C@H](O)c3ccc4oc(F)cc4c3)n2)c1=O [Example 4]",
    "reading unit": "% Qh",
    "result qualifier": "=",
    "human Hepatocytes [% Qh]": 8
  },
  {
    "molecule": "Cn1c(=O)c(C(=O)NCCn2cccn2)cn(Cc2nnn(C[C@H](O)c3ccc(Cl)cc3)n2)c1=O [Example 35]",
    "reading unit": "% Qh",
    "result qualifier": "=",
    "human Hepatocytes [% Qh]": 19
  },
  {
    "molecule": "Cn1c(=O)c(C(N)=O)cn(Cc2nnn(C[C@H](O)c3cc4cc(Cl)ccc4o3)n2)c1=O [Example 6]",
    "reading unit": "% Qh",
    "result qualifier": "=",
    "human Hepatocytes [% Qh]": 15
  },
  {
    "molecule": "Cn1c(=O)c(C(N)=O)cn(Cc2nnn(C[C@H](O)c3cc4ccccc4o3)n2)c1=O [Example 9]",
    "reading unit": "% Qh",
    "result qualifier": "=",
    "human Hepatocytes [% Qh]": 7
  },
  {
    "molecule": "COCCn1c(=O)c(C(N)=O)cn(Cc2nnn(C[C@H](O)c3ccc(Cl)cc3)n2)c1=O [Example 21]",
    "reading unit": "% Qh",
    "result qualifier": "=",
    "human Hepatocytes [% Qh]": 15
  },
  {
    "molecule": "Cn1c(=O)c(C(=O)NCCF)cn(Cc2nnn(C[C@H](O)c3ccc(Cl)cc3)n2)c1=O [Example 33]",
    "reading unit": "% Qh",
    "result qualifier": "=",
    "human Hepatocytes [% Qh]": 28
  },
  {
    "molecule": "COc1ccc([C@@H](O)Cn2nnc(Cn3cc(C(N)=O)c(=O)n(C)c3=O)n2)cc1 [Example 16]",
    "reading unit": "% Qh",
    "result qualifier": "<",
    "human Hepatocytes [% Qh]": 4
  },
  {
    "molecule": "Cn1c(=O)c(C(=O)NCCOC(F)(F)F)cn(Cc2nnn(C[C@H](O)c3ccc(Cl)cc3)n2)c1=O [Example 30]",
    "reading unit": "% Qh",
    "result qualifier": "=",
    "human Hepatocytes [% Qh]": 9
  }
]

---

Experiment: Assay B: Microsomal clearance
Type: in vitro ADME, human
Details: pooled liver microsomes 1 mg/ml, 1 μM compound, NADPH, 37° C.; clearance as % of hepatic blood flow
Short version: human LM [% Qh] at least 40 % Qh is YES, less is NO.

[
  {
    "smiles record": "CC(C)Cn1c(=O)c(C(N)=O)cn(Cc2nnn(C[C@H](O)c3ccc(Cl)cc3)n2)c1=O",
    "assigned label": "YES"
  },
  {
    "smiles record": "Cn1c(=O)c(C(N)=O)cn(Cc2nnn(C[C@H](O)c3cc4ccc(F)cc4s3)n2)c1=O",
    "assigned label": "NO"
  },
  {
    "smiles record": "Cn1c(=O)c(C(=O)NCCOC(F)(F)F)cn(Cc2nnn(C[C@H](O)c3ccc(Cl)cc3)n2)c1=O",
    "assigned label": "NO"
  },
  {
    "smiles record": "Cn1c(=O)c(C(N)=O)cn(Cc2nnn(C[C@H](O)c3cc4cc(Cl)ccc4o3)n2)c1=O",
    "assigned label": "NO"
  },
  {
    "smiles record": "Cn1c(=O)c(C(=O)NCCF)cn(Cc2nnn(C[C@H](O)c3ccc(Cl)cc3)n2)c1=O",
    "assigned label": "YES"
  },
  {
    "smiles record": "Cn1c(=O)c(C(=O)NCC(F)F)cn(Cc2nnn(C[C@H](O)c3ccc(Cl)cc3)n2)c1=O",
    "assigned label": "NO"
  },
  {
    "smiles record": "Cn1ccnc1CNC(=O)c1cn(Cc2nnn(C[C@H](O)c3ccc(Cl)cc3)n2)c(=O)n(C)c1=O",
    "assigned label": "YES"
  },
  {
    "smiles record": "Cn1c(=O)c(C(=O)NCCS(C)(=O)=O)cn(Cc2nnn(C[C@H](O)c3ccc(Cl)cc3)n2)c1=O",
    "assigned label": "NO"
  },
  {
    "smiles record": "Cn1c(=O)c(C(=O)NCC2CC2)cn(Cc2nnn(C[C@H](O)c3ccc(Cl)cc3)n2)c1=O",
    "assigned label": "YES"
  },
  {
    "smiles record": "Cn1c(=O)c(C(N)=O)cn(Cc2nnn(C[C@H](O)c3ccc4oc(F)cc4c3)n2)c1=O",
    "assigned label": "NO"
  },
  {
    "smiles record": "Cn1c(=O)c(C(N)=O)cn(Cc2nnn(C[C@H](O)c3cc(Cl)c(Cl)s3)n2)c1=O",
    "assigned label": "NO"
  },
  {
    "smiles record": "Cn1c(=O)c(C(N)=O)cn(Cc2nnn(C[C@H](O)c3ccc(Cl)cc3)n2)c1=O",
    "assigned label": "NO"
  },
  {
    "smiles record": "COCCn1c(=O)c(C(N)=O)cn(Cc2nnn(C[C@H](O)c3ccc(Cl)cc3)n2)c1=O",
    "assigned label": "NO"
  },
  {
    "smiles record": "Cn1c(=O)c(C(N)=O)cn(Cc2nnn(C[C@H](O)c3ccc(Br)cc3)n2)c1=O",
    "assigned label": "NO"
  },
  {
    "smiles record": "Cn1c(=O)c(C(N)=O)cn(Cc2nnn(C[C@H](O)c3cc4ccccc4s3)n2)c1=O",
    "assigned label": "NO"
  },
  {
    "smiles record": "Cn1c(=O)c(C(=O)NCCN2CCOCC2)cn(Cc2nnn(C[C@H](O)c3ccc(Cl)cc3)n2)c1=O",
    "assigned label": "NO"
  }
]

Source: patent US11884652B2
